Tested on: 282377-053-R-J1-PDC complex spheroid viability;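 note: spheroids exposed to compounds for seven days; 100% = DMSO vehicle control viability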
Assay: Anticancer human tumor 282377-053-R-J1-PDC patient-derived colon adenocarcinoma cell line growth inhibition [POLQ]
Settings: second compound 3.16 µM; first compound 10 µM; hits give low values
QUANTITY_MEASURED: viability, T/C (%)

COMPOUND: O=c1[nH]cc(F)c(=O)[nH]1 + Cc1cccc(N(C)C(=O)C2C(O)CCN2c2nc(C)cc(C(F)(F)F)c2C#N)c1
VALUE_UNITS: %
OBSERVED_VALUE: 68.7

COMPOUND: CC1COCCN1c1cc(C2(O)CC3CCC(C2)O3)c2cnn(-c3ccn[nH]3)c2n1 (stereo not given) + COC1C(OC(N)=O)C(O)C(Oc2ccc3c(O)c(NC(=O)c4ccc(O)c(CC=C(C)C)c4)c(=O)oc3c2C)OC1(C)C
VALUE_UNITS: %
OBSERVED_VALUE: 18.6

COMPOUND: CCCS(=O)(=O)Nc1ccc(F)c(C(=O)c2c[nH]c3ncc(-c4ccc(Cl)cc4)cc23)c1F + COC1C(OC(N)=O)C(O)C(Oc2ccc3c(O)c(NC(=O)c4ccc(O)c(CC=C(C)C)c4)c(=O)oc3c2C)OC1(C)C
VALUE_UNITS: %
OBSERVED_VALUE: 33.2

COMPOUND: Nc1ccn(C2OC(CO)C(O)C2(F)F)c(=O)n1 (stereo not given) + Cc1cccc(N(C)C(=O)C2C(O)CCN2c2nc(C)cc(C(F)(F)F)c2C#N)c1
VALUE_UNITS: %
OBSERVED_VALUE: 13.9

COMPOUND: O=C(c1cc(Cc2n[nH]c(=O)c3ccccc23)ccc1F)N1CCN(C(=O)C2CC2)CC1 + Cc1cccc(N(C)C(=O)C2C(O)CCN2c2nc(C)cc(C(F)(F)F)c2C#N)c1
VALUE_UNITS: %
OBSERVED_VALUE: 101
